STUDY SYSTEM: αvβ3 integrin on U87MG glioblastoma cells (Homo sapiens, UniProt P05106+P06756)
Construct: host or cells: U87MG glioblastoma cells
ASSAY NOTES: 125I-echistatin competition binding to U87MG glioblastoma cells
CONDITION: read-out: IC50, competition with 125I-echistatin; unlabeled peptides (Cy5.5: No); U87MG tumor cells
Positions of bridges follow the written chain, without caps; N, C: chain ends. No end group written: not given here.
TEST READOUT: IC50 (nM)
# number only, unit nM dropped from output

Supply IC50 value. Item: ECESGPCCRNCKFLKEGTICKRARGDDMDDYCNGKTCDCPRNPHKGPAT (disulfide 2-11, 7-32, 8-37, 20-39 (inferred)) [Echistatin, echistatin]
4.9

Origin of measurements: patent US9265845B2
